Source of measurements: PubChem BioAssay AID1963869

Listed compounds paired with reported viability, T/C
# System: KRAS patient-derived spheroids with HUVEC/MSC, viability;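 also: spheroids exposed to agents for 7 days; 100% = DMSO vehicle control viability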
# procedure_text: Anticancer human tumor 323965-272-R-J2-PDC patient-derived pancreatic carcinoma cell line growth inhibition [KRAS2]
# reported_conditions: second compound 0.1 µM; first compound 1 µM; active compounds read low

Reference set, count: 2
* CCN1CCN(Cc2ccc(Nc3ncc(F)c(-c4cc(F)c5nc(C)n(C(C)C)c5c4)n3)nc2)CC1 + C=CC(=O)N1CCN(c2nc(=O)n(-c3c(C)ccnc3C(C)C)c3nc(-c4c(O)cccc4F)c(F)cc23)C(C)C1 | 43.1%
* COc1cc(Nc2ncc3c(n2)-c2ccc(Cl)cc2C(c2c(F)cccc2OC)=NC3)ccc1C(=O)O + C=CC(=O)N1CCN(c2nc(=O)n(-c3c(C)ccnc3C(C)C)c3nc(-c4c(O)cccc4F)c(F)cc23)C(C)C1 | 31.7%

// below: viability, T/C requested for another compound
INPUT: // fetch viability, T/C; item: COc1cc2nccc(Oc3ccc(NC(=O)C4(C(=O)Nc5ccc(F)cc5)CC4)cc3)c2cc1OC + C=CC(=O)N1CCN(c2nc(=O)n(-c3c(C)ccnc3C(C)C)c3nc(-c4c(O)cccc4F)c(F)cc23)C(C)C1 ; system: KRAS patient-derived spheroids with HUVEC/MSC, viability;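 also: spheroids exposed to agents for 7 days; 100% = DMSO vehicle control viability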
OUTPUT: 62.6%
